- system-name: T1, cSNK:BSA conjugate (bovine, head-to-tail cyclized; conjugated to BSA carrier)
- T1 construct: also called BSA-cSNK
- T1 sequence (P02769 25-607 limits assumed): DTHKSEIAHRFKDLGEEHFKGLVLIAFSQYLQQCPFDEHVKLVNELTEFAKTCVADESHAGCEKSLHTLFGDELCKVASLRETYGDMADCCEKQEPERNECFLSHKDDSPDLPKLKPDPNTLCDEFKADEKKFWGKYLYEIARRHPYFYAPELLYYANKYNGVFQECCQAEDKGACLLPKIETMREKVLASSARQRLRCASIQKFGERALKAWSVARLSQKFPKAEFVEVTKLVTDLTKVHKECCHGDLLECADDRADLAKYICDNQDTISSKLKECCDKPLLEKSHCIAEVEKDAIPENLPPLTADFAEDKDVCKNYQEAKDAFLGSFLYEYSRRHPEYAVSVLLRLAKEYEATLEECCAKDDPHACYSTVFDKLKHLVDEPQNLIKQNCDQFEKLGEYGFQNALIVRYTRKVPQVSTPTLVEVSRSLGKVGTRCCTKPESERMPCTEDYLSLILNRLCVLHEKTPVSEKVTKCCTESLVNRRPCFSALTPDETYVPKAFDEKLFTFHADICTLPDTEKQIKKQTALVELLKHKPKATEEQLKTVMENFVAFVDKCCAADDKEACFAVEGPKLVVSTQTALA
- procedure-summary: BLI 2:1 fit, site 2 (kdis2); 100 nM row
measured-attribute: koff (s⁻¹)
Give just the numeric value; s⁻¹ need not be written.

>>> observed_measurement("hu5E3-IgG4 (antibody, V domains shown, human IgG4/kappa; also called humanized 5E3 IgG4) VH: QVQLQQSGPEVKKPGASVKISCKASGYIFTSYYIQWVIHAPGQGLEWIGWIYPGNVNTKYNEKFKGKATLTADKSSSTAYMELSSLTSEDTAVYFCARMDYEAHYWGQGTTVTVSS VL: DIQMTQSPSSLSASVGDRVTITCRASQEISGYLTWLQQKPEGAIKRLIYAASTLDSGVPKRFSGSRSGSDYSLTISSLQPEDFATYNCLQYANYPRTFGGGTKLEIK")
0.0229

Which koff is listed for hu5E3-IgG2 (antibody, V domains shown, human IgG2/kappa; also called humanized 5E3 IgG2) VH: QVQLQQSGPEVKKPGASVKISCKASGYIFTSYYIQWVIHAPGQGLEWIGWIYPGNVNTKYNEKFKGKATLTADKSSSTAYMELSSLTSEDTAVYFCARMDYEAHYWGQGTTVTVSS VL: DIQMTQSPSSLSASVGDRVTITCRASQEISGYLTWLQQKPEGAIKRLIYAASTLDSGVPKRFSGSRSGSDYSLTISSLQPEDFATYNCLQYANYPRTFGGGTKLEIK ? 0.0338

Now consider rehu5E3-IgG4 (antibody, V domains shown, human IgG4/kappa; also called IgG4 rehu version) VH: QVQLQQSGPEVVKPGASVKISCKASGYIFTSYYIQWVIHAPGQGLEWIGWIYPGNVNTKYNEKFKGKATLTADKSSSTAYMELSSLRSEDSAVYFCARMDYEAHYWGQGTLVTVSS VL: DIQMTQSPSSLSASLGDRVTLTCRASQEISGYLTWLQQKPEKAIKRLIYAASTLDSGVPKRFSGSRSGSDYTLTISSLQPEDFADYNCLQYANYPRTFGGGTKLEIK . 0.0175

Now consider murine monoclonal antibody 5E3 (antibody, V domains shown, mouse antibody of the 5E3 hybridoma; also called murine 5E3; m5E3) VH: QVQLQQSGPELVKPGASVRISCKASGYIFTSYYIQWVIHRPGQGLEWIGWIYPGNVNTKYNEKFKGKATLTADKSSSTAYMQLSRLTSEDSAVYFCARMDYEAHYWGQGTTLTVSS VL: DIQMTQSPSSLSASLGERVSLTCRASQEISGYLTWLQQKPDGTIKRLIYAASTLDSGVPKRFSGSRSGSDYSLTISSLESEDFADYNCLQYANYPRTFGGGTKLEIK . 0.0226
